System: GENE-TOX genotoxicity assays, various organisms and cells
Assay: GENE-TOX mutagenicity studies
Conditions: Species/Cell Type: Vicia faba; Assay Type: Chromosome aberrations; Assay Code: VIC+D; Dose Response: With dose response; Evaluation Type: Evaluation A (Pre-1980)
Activity calls are given as the source filed them. No rule for the calls is given here.
endpointName: mutagenic call

| compound | endpointName | result |
| --- | --- | --- |
| COS(C)(=O)=O | mutagenic call | active; positive |
| CCOS(C)(=O)=O | mutagenic call | active; positive |
| FC(F)(F)C(Cl)Br (stereo not given) | mutagenic call | active; positive |
| ClC1=C(Cl)[C@]2(Cl)[C@@H]3[C@H]4C[C@H]([C@@H]5O[C@H]45)[C@@H]3[C@@]1(Cl)C2(Cl)Cl | mutagenic call | active; positive |
| C1OC1C1CO1 (stereo not given) | mutagenic call | active; positive |
| CS(=O)(=O)OCCCl | mutagenic call | active; positive |
| ClC1C(Cl)C(Cl)C(Cl)C(Cl)C1Cl (stereo not given) | mutagenic call | active; positive |
| CC(C)OC(=O)Nc1ccccc1 | mutagenic call | active; positive |
| S=P(N1CC1)(N1CC1)N1CC1 | mutagenic call | active; positive |
| C[N+](C)(C)CCCl | mutagenic call | active; positive |
